The origin of these recorded values is PubChem BioAssay (NCI).

- System: SF-268 CNS
- ASSAY_PROCEDURE: NCI-60 one-dose screen, 48 h (100 = growth as untreated, 0 = no growth, -100 = all killed)
- CONDITION_CONTEXT: 10 µM
This is part of a sample that, as a whole, favours compounds with a hit. Of some 83,000 tested, about 20% had one in any assay.
Please note: Yes applies when growth is 90% or greater, and No applies otherwise.

Known results for molecules:
[
  {
    "MOLECULAR_STRING": "COc1cc(C(=O)/C=C/c2c[nH]c3ccccc23)cc(OC)c1OC",
    "CLASS_NAME": "No"
  },
  {
    "MOLECULAR_STRING": "Nc1ncc(-c2cnn(C3CCNCC3)c2)cc1-c1nc2ccccc2o1",
    "CLASS_NAME": "No"
  },
  {
    "MOLECULAR_STRING": "COc1ccc(N(C)c2ncnc3occ(C)c23)cc1",
    "CLASS_NAME": "No"
  },
  {
    "MOLECULAR_STRING": "COc1cc2cc(Oc3ccc(NC(=O)Nc4ccc(Cl)c(C(F)(F)F)c4)cc3)c(C)nc2cc1OC",
    "CLASS_NAME": "No"
  },
  {
    "MOLECULAR_STRING": "S=C(NCc1ccccc1)NCc1ccccc1",
    "CLASS_NAME": "Yes"
  },
  {
    "MOLECULAR_STRING": "CC(C)c1cc(N=O)cc(C(C)C)c1O",
    "CLASS_NAME": "Yes"
  }
]

stdin: I'd appreciate it if you could say whether `Cc1nn(-c2ccc(-c3ccc(OC(F)(F)F)cc3)cc2)c2nc(Cc3ccccc3)nc(N)c12` has growth at least equal to 90%.
stdout: No

stdin: I'd appreciate it if you could say whether `O=S(=O)(Oc1ccc(-c2ccc3sccc3c2)cc1)c1ccc(F)cc1` has growth at least equal to 90%.
stdout: Yes

###

- Test system: SK-MEL-5 melanoma
- ASSAY_PROCEDURE: NCI-60 one-dose screen, 48 h (100 = growth as untreated, 0 = no growth, -100 = all killed)
- CONDITION_CONTEXT: 10 µM
Compounds without any hit were thinned out: in the full panel of roughly 83,000, 20% have a hit.
Mark each entry y if its growth sits below 70%, and n for all others.

Known results for compounds:
[
  {
    "COMPOUND": "Clc1ccc2c(c1)C(N1CCNCC1)=Nc1ccccc1O2",
    "CLASS_NAME": "y"
  },
  {
    "COMPOUND": "COc1ccc2c(c1)C(=O)/C(=C/c1cccc(OCC(=O)c3ccc([N+](=O)[O-])cc3)c1)CO2",
    "CLASS_NAME": "y"
  },
  {
    "COMPOUND": "NC(CSC(c1ccccc1)(c1ccccc1)c1cccc2ccccc12)C(=O)O (stereo unspecified)",
    "CLASS_NAME": "n"
  },
  {
    "COMPOUND": "Nc1cc(-c2ccc(Cl)cc2)nn1-c1nc2ccccc2nc1Cc1ccccc1",
    "CLASS_NAME": "n"
  },
  {
    "COMPOUND": "CC[N+](CC)=c1ccc2nc3c(cc(NCc4ccccc4)c4ccccc43)oc-2c1",
    "CLASS_NAME": "y"
  }
]

stdin: State whether 70% exceeds growth recorded for `Clc1nc2ccc(Br)cc2cc1-c1nc2ccccc2[nH]1` .
stdout: n

stdin: State whether 70% exceeds growth recorded for `O=C(CCc1nnc2sc(-c3cc(O)c(O)c(O)c3)nn12)c1nc2ccccc2[nH]1` .
stdout: n

stdin: State whether 70% exceeds growth recorded for `CCn1c(SCCc2ccccc2)nnc1-c1nn(-c2ccc(Cl)cc2Cl)c(-c2ccc(Cl)cc2)c1C` .
stdout: n

stdin: State whether 70% exceeds growth recorded for O=C1CC(SC(=S)C2CCCC2=O)C(=O)N1 (stereo unspecified) .
stdout: n

stdin: State whether 70% exceeds growth recorded for `Cc1cc(CSc2ccccc2C(=O)N2CC=C(c3ccccc3)CC2)on1` .
stdout: n

stdin: State whether 70% exceeds growth recorded for `CN1C(C(=O)Nc2ccccn2)=C(O)c2sc(Cl)cc2S1(=O)=O` .
stdout: n

stdin: State whether 70% exceeds growth recorded for `COc1ccc2nc3cc(Cl)ccc3c(Nc3cc(CN4CCCC4)c(O)c(CN4CCCC4)c3)c2n1` .
stdout: y

stdin: State whether 70% exceeds growth recorded for `CC(=O)Oc1cc(OC(C)=O)c2ccccc2c1OC(C)=O` .
stdout: y

stdin: State whether 70% exceeds growth recorded for `O=C(N/N=C/c1cc([N+](=O)[O-])ccc1O)c1cccc2ccccc12` .
stdout: y

stdin: State whether 70% exceeds growth recorded for CC1C(=NC(=O)c2cnccn2)C(C)C(c2ccc(Cl)cc2)NC1c1ccncc1 (stereo unspecified) .
stdout: n
